Task for the reader: assign each of the following compounds its reported TGI.
# Test system: CAKI-1 renal
# test: NCI tumour cell line growth inhibition, 48 h

Q: Please indicate TGI recorded for CC(=O)Nc1ccc2c3c(cc(O)c2c1)N(C(=O)CCCCC(=O)Nc1ccc2c4c(cc(O)c2c1)N(C(=O)OC(C)(C)C)CC4CCl)CC3CCl (stereo unspecified)
Ans: 71.5 µM

Q: Please indicate TGI recorded for COc1cc2c(cc1OC)CC(N=[N+]=[N-])c1cc(OC)c(OC)cc1/C=C\2 (stereo unspecified)
Ans: 95.3 µM

Q: Please indicate TGI recorded for CN=S(=O)(c1ccccc1)c1ccccc1
Ans: > 100 µM

Q: Please indicate TGI recorded for COc1ccc(N=C(Nc2ccc(OC)cc2)C(=Nc2ccc(OC)cc2)Nc2ccc(OC)cc2)cc1
Ans: > 100 µM

Q: Please indicate TGI recorded for Cc1cn(Cc2ccccc2CCl)c(=O)[nH]c1=O
Ans: 24.8 µM

Q: Please indicate TGI recorded for COc1nc2nccc-2c2occn12
Ans: > 100 µM

Q: Please indicate TGI recorded for O=C(CN1CCN(c2ccccc2)CC1)N1CCc2c([nH]c3ccccc23)C1c1cccnc1 (stereo unspecified)
Ans: > 72.6 µM

Q: Please indicate TGI recorded for COc1ccc2oc3cccc(NCCN(C)C)c3c(=O)c2c1
Ans: 18.2 µM

Q: Please indicate TGI recorded for C[C@@H]1COCCN1c1cc(C2(S(C)(=N)=O)CC2)nc(-c2ccnc3[nH]ccc23)n1 (stereo partly specified)
Ans: 25.5 µM

Q: Please indicate TGI recorded for COc1ccc2c3c1OC1c4[nH]c5ccccc5c4CC4(O)C(C2)N(C)CCC314 (stereo unspecified)
Ans: > 100 µM

Q: Please indicate TGI recorded for COc1cc(/C=C/C(=O)c2sc(Nc3ccccc3)nc2C)ccc1O
Ans: > 100 µM

Entry source: PubChem BioAssay (NCI)
